# TARGET_UNDER_TEST: androgen receptor (AdEasy+rAR, L929 cells) (Rattus norvegicus)
# Construct: expressed in transfected cells; host or cells: L929 cells transduced with adenovirus AdEasy+rAR
# EXPERIMENTAL_PROTOCOL: L929 Androgen Receptor Functional Assay, Adenovirus Transduction
# Format: cell-based
# CONDITION_PARAMETERS: antagonist testing with R1881
Could you please report measured IC50 for the items listed next?
Could you give me the number in nM? Just the number is fine.

### Prompt State the recorded IC50 for this entry: CCS(=O)(=O)CC(C)(O)c1cc2cc(C#N)c(C(F)(F)F)cc2[nH]1 (single isomer, unassigned)
### Response 2410

### Prompt Param item: CCSCC(C)(O)c1cc2cc([N+](=O)[O-])c(C(F)(F)F)cc2n1C (single isomer, unassigned)
### Response 3180

### Prompt Param item: CCS(=O)(=O)CC(C)(O)c1[nH]c2cc(C(F)(F)F)c(C#N)cc2c1C (single isomer, unassigned) [Compound 251]
### Response 200

---

Could you please report measured % Activity, L929 androgen receptor functional assay for the items listed next?
# TARGET_UNDER_TEST: androgen receptor (AdEasy+rAR, L929 cells) (Rattus norvegicus)
# Construct: expressed in transfected cells; host or cells: L929 cells transduced with adenovirus AdEasy+rAR
# EXPERIMENTAL_PROTOCOL: L929 Androgen Receptor Functional Assay, Adenovirus Transduction
# Type: cell-based
# CONDITION_PARAMETERS: agonist testing, 3000 nM
Could you give me the number in %? Just the number is fine.

### Prompt Form: Entry = CCSCC(C)(O)c1cc2cc([N+](=O)[O-])cc(C(F)(F)F)c2[nH]1 (stereo not shown) [Compound 212] | System = androgen receptor (AdEasy+rAR, L929 cells) (Rattus norvegicus) | % Activity, L929 androgen receptor functional assay = ____
### Response −3

### Prompt Param item: CCSCC(C)(O)c1cc2cc([N+](=O)[O-])c(C(F)(F)F)cc2[nH]1 (racemic) [Compound 142]
### Response 0

### Prompt Param item: COc1ccc(SCC(C)(O)c2cc3cc(Cl)c(C(F)(F)F)cc3[nH]2)cc1 (stereo not shown) [Compound 131]
### Response −5

### Prompt Param item: CCS(=O)(=O)C[C@](C)(O)c1cc2cc([N+](=O)[O-])c(C(F)(F)F)cc2[nH]1 [Compound 156]
### Response 2

---

# TARGET_UNDER_TEST: androgen receptor (AdEasy+rAR, COS-7 cells) (Rattus norvegicus, UniProt P15207)
# Construct: expressed in transfected cells; host or cells: COS-7 cells transduced with adenovirus AdEasy+rAR
# Sequence (P15207 whole entry S389L): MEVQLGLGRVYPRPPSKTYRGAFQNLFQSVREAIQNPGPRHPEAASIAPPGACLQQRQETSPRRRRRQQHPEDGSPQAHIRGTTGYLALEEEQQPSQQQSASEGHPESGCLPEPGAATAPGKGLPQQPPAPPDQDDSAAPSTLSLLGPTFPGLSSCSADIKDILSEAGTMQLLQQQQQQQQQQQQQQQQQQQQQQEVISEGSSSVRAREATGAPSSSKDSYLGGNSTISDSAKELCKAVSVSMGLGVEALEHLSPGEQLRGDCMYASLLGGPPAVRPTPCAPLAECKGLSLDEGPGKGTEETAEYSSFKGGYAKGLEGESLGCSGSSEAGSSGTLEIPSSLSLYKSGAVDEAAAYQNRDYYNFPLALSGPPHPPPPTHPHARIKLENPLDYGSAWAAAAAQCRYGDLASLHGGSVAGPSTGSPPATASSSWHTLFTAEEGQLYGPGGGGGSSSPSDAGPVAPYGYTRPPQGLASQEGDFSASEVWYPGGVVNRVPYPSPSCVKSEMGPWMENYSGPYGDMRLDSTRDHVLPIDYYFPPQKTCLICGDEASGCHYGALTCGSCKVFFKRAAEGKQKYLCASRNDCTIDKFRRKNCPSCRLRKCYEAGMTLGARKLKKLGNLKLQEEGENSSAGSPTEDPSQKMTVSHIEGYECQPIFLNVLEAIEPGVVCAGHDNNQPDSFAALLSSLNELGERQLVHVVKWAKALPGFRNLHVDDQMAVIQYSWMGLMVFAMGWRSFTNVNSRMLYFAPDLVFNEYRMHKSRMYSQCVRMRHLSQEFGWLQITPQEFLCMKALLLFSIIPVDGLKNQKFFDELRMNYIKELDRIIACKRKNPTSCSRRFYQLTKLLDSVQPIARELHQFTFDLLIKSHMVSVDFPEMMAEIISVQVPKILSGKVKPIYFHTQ
# EXPERIMENTAL_PROTOCOL: COS-7 Whole-Cell Androgen Receptor Binding Assay, Adenovirus Transduction
# CONDITION_PARAMETERS: read-out: IC50 (nM), COS Binding
OBSERVATION_TYPE: log10 of IC50 (log10 of the value in nM)
A difference of one corresponds to tenfold IC50; all values are log10 with IC50 in nM.

### Prompt State the recorded log10 of IC50 for this entry: CCSCC(C)(O)c1cc2cc(Cl)c(C(F)(F)F)cc2[nH]1 (centres unmarked)
### Response 2.03

### Prompt Param item: CCSCC(C)(O)c1[nH]c2cc(C(F)(F)F)c([N+](=O)[O-])cc2c1C#N (centres unmarked) [Compound 242]
### Response 2.48

### Prompt Param item: CCSCC(O)(CC)c1cc2cc([N+](=O)[O-])c(C(F)(F)F)cc2[nH]1 (centres unmarked)
### Response 1.68

### Prompt Param item: CCC(O)(CS(=O)(=O)CC(F)(F)F)c1cc2cc([N+](=O)[O-])c(C(F)(F)F)cc2[nH]1 (centres unmarked)
### Response 2.92

### Prompt Param item: CC(O)(CSCC(F)(F)F)c1cc2cc(F)c(C(F)(F)F)cc2[nH]1 (centres unmarked)
### Response 2.45

### Prompt Param item: CC(O)(CSc1ccc(O)cc1)c1cc2cc(Cl)c(C(F)(F)F)cc2[nH]1 (centres unmarked)
### Response 2.31

### Prompt Param item: CCS(=O)(=O)CC(C)(O)c1[nH]c2cc(C(F)(F)F)c(C#N)cc2c1C (single isomer, unassigned) [Compound 251]
### Response 2.34

---

Could you please report measured % Activity, L929 androgen receptor functional assay for the items listed next?
# TARGET_UNDER_TEST: androgen receptor (AdEasy+rAR, L929 cells) (Rattus norvegicus, UniProt P15207)
# Construct: expressed in transfected cells; host or cells: L929 cells transduced with adenovirus AdEasy+rAR
# Sequence (P15207 whole entry S389L): as above
# EXPERIMENTAL_PROTOCOL: L929 Androgen Receptor Functional Assay, Adenovirus Transduction
# Format: cell-based
# CONDITION_PARAMETERS: agonist testing, 3000 nM
Could you give me the number in %? Just the number is fine.

### Prompt State the recorded % Activity, L929 androgen receptor functional assay for this entry: CCSCC(C)(O)c1cc2cc(Br)c(C(F)(F)F)cc2[nH]1 (stereo not shown) [Compound 220]
### Response −3

### Prompt Param item: CC(O)(CSc1ccc(C(=O)O)cc1)c1cc2cc(Cl)c(C(F)(F)F)cc2n1S(C)(=O)=O (stereo not shown) [Compound 132]
### Response −5

### Prompt Param item: CC(C)SCC(C)(O)c1cc2cc([N+](=O)[O-])c(C(F)(F)F)cc2[nH]1 (stereo not shown) [Compound 164]
### Response 2

### Prompt Param item: CN(C)c1ccc(SCC(C)(O)c2cc3cc(Cl)c(C(F)(F)F)cc3[nH]2)cc1 (stereo not shown) [Compound 124]
### Response −4

### Prompt Param item: CC(C)CSCC(C)(O)c1cc2cc([N+](=O)[O-])c(C(F)(F)F)cc2[nH]1 (stereo not shown) [Compound 170]
### Response 2

### Prompt Param item: CCC(O)(CSCC(F)(F)F)c1cc2cc(Cl)c(C(F)(F)F)cc2[nH]1 (stereo not shown) [Compound 192]
### Response 8

### Prompt Param item: CCCS(=O)(=O)CC(C)(O)c1cc2cc([N+](=O)[O-])c(C(F)(F)F)cc2[nH]1 (stereo not shown) [Compound 177]
### Response 2

### Prompt Param item: CC(O)(CS(C)(=O)=O)c1cc2cc([N+](=O)[O-])c(C(F)(F)F)cc2[nH]1 (stereo not shown) [Compound 148]
### Response 0

### Prompt Param item: CCC(O)(CS(=O)(=O)CC(F)(F)F)c1[nH]c2cc(C(F)(F)F)c([N+](=O)[O-])cc2c1Cl (stereo not shown) [Compound 199]
### Response 2

### Prompt Param item: CC(O)(CS(=O)(=O)Cc1ccccc1)c1cc2cc([N+](=O)[O-])c(C(F)(F)F)cc2[nH]1 (racemic) [Compound 162]
### Response 2

### Prompt Param item: COc1ccc(S(=O)(=O)CC(C)(O)c2cc3cc(Cl)c(C(F)(F)F)cc3[nH]2)cc1 (racemic) [Compound 129]
### Response −5

### Prompt Param item: CC[S+]([O-])CC(O)c1cc2cc([N+](=O)[O-])c(C(F)(F)F)cc2[nH]1 (mixture of isomers) [Compound 180]
### Response 2

### Prompt Param item: CC(O)(CSCc1cccs1)c1cc2cc([N+](=O)[O-])c(C(F)(F)F)cc2[nH]1 (stereo not shown) [Compound 197]
### Response 2

### Prompt Param item: CC(O)(CSc1ccc([N+](=O)[O-])cc1)c1cc2cc(Cl)c(C(F)(F)F)cc2[nH]1 (stereo not shown) [Compound 122]
### Response 10

### Prompt Param item: CCSCC(C)(O)c1cc2cc([N+](=O)[O-])c(C(F)(F)F)cc2n1C (racemic) [Compound 165]
### Response 1

### Prompt Param item: CCCSCC(C)(O)c1cc2cc(Cl)c(C(F)(F)F)cc2[nH]1 (racemic) [Compound 196]
### Response 13

---

Could you please report measured % Activity, L929 androgen receptor functional assay for the items listed next?
# TARGET_UNDER_TEST: androgen receptor (AdEasy+rAR, L929 cells) (Rattus norvegicus)
# Construct: expressed in transfected cells; host or cells: L929 cells transduced with adenovirus AdEasy+rAR
# EXPERIMENTAL_PROTOCOL: L929 Androgen Receptor Functional Assay, Adenovirus Transduction
# Type: cell-based
# CONDITION_PARAMETERS: agonist testing, 3000 nM; 3 µM

### Prompt Form: Entry = CC(O)(CSCC(F)(F)F)c1cc2cc([N+](=O)[O-])c(C(F)(F)F)cc2[nH]1 (stereo not shown) [Compound 201] | System = androgen receptor (AdEasy+rAR, L929 cells) (Rattus norvegicus) | % Activity, L929 androgen receptor functional assay = ____
### Response 2%

### Prompt Param item: CC(O)(CSCC(F)(F)F)c1cc2cc([N+](=O)[O-])c(C(F)(F)F)cc2[nH]1 (single isomer, unassigned) [Compound 202]
### Response 1%

### Prompt Param item: CCS(=O)(=O)CC(C)(O)c1[nH]c2cc(C(F)(F)F)c(C#N)cc2c1C (single isomer, unassigned) [Compound 251]
### Response −1%

### Prompt Param item: CSCC(C)(O)c1cc2cc([N+](=O)[O-])c(C(F)(F)F)cc2[nH]1 (single isomer, unassigned) [Compound 145]
### Response 1%

The reported numbers originate from patent US7282507B2.
